Target: Yap3 (UniProt P38749)
Sequence: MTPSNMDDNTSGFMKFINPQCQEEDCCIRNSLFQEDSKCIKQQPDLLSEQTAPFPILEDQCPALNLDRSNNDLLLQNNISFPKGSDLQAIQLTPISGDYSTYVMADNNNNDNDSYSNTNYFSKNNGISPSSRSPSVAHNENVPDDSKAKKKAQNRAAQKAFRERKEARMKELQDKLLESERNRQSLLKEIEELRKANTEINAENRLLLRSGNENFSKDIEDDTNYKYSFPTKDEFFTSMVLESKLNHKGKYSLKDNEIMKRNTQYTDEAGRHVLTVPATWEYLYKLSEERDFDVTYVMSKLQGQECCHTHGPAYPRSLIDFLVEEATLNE
Assay: PBM E-score (8-mer binding enrichment) (E-score (-0.5 to 0.5)); higher = stronger / more preferred TF binding
Conditions: protein concentration: 100 nM; construct: GST-full length
The full ranking holds about 33,000 sequences; the median of “E-score (-0.5 to 0.5)” is about -0.0034, and the highest 2% start at about 0.25. The sample holds the highest values, similar sequences and a random draw of the others, so the mix is not that of the screen.
# cutoff 0.08 applies to PBM E-score; >= gives 1, < gives -1

INSERT INTO results (sequence_record, assay_system, label_value) VALUES
  ('AATCAGGA', 'Yap3 (UniProt P38749)', -1),
  ('CAGCGACG', 'Yap3 (UniProt P38749)', -1),
  ('GTAGCCGA', 'Yap3 (UniProt P38749)', -1),
  ('CATAATCG', 'Yap3 (UniProt P38749)', 1),
  ('AAGTAAAT', 'Yap3 (UniProt P38749)', 1),
  ('ACGAATAT', 'Yap3 (UniProt P38749)', 1),
  ('GGACCGGA', 'Yap3 (UniProt P38749)', -1),
  ('GAAGCCTC', 'Yap3 (UniProt P38749)', -1),
  ('CATAATCA', 'Yap3 (UniProt P38749)', 1),
  ('CCATGTAG', 'Yap3 (UniProt P38749)', -1),
  ('ACCCATCT', 'Yap3 (UniProt P38749)', -1),
  ('ACATGTAC', 'Yap3 (UniProt P38749)', 1),
  ('CGTAATTA', 'Yap3 (UniProt P38749)', 1),
  ('TAATATTA', 'Yap3 (UniProt P38749)', 1),
  ('CTGACGTA', 'Yap3 (UniProt P38749)', -1),
  ('CTGTACGA', 'Yap3 (UniProt P38749)', -1),
  ('AACGGATA', 'Yap3 (UniProt P38749)', 1),
  ('GCCGTATA', 'Yap3 (UniProt P38749)', 1),
  ('AGTAATTG', 'Yap3 (UniProt P38749)', 1),
  ('GTACGAAA', 'Yap3 (UniProt P38749)', 1),
  ('CCGCGCTA', 'Yap3 (UniProt P38749)', 1),
  ('AACGCGCA', 'Yap3 (UniProt P38749)', 1),
  ('ATCACGTG', 'Yap3 (UniProt P38749)', -1),
  ('GTACAAGA', 'Yap3 (UniProt P38749)', -1),
  ('ATTTCATC', 'Yap3 (UniProt P38749)', 1),
  ('ACATGTAG', 'Yap3 (UniProt P38749)', 1),
  ('AAGGTGCG', 'Yap3 (UniProt P38749)', -1),
  ('TCTAATAA', 'Yap3 (UniProt P38749)', 1),
  ('CGAGTTGA', 'Yap3 (UniProt P38749)', 1),
  ('CGTCTGAC', 'Yap3 (UniProt P38749)', -1),
  ('GCGCTCAA', 'Yap3 (UniProt P38749)', -1),
  ('ACCCTATA', 'Yap3 (UniProt P38749)', -1),
  ('CACGGATG', 'Yap3 (UniProt P38749)', -1),
  ('ATCGCACC', 'Yap3 (UniProt P38749)', -1),
  ('CTCTCTAC', 'Yap3 (UniProt P38749)', 1),
  ('AGGTTACA', 'Yap3 (UniProt P38749)', -1),
  ('TGGCCACA', 'Yap3 (UniProt P38749)', -1),
  ('CACGCGAA', 'Yap3 (UniProt P38749)', -1),
  ('CGAGAGGC', 'Yap3 (UniProt P38749)', -1),
  ('AGTAATTC', 'Yap3 (UniProt P38749)', 1),
  ('CAGTAAGC', 'Yap3 (UniProt P38749)', -1),
  ('CTTTTGCA', 'Yap3 (UniProt P38749)', 1),
  ('AACGCGCG', 'Yap3 (UniProt P38749)', 1),
  ('GCGATGAC', 'Yap3 (UniProt P38749)', 1),
  ('AGTAATTA', 'Yap3 (UniProt P38749)', 1),
  ('GTCTTCGA', 'Yap3 (UniProt P38749)', -1),
  ('CGCTGTCA', 'Yap3 (UniProt P38749)', -1),
  ('CAAAGTCA', 'Yap3 (UniProt P38749)', -1),
  ('CAATATCA', 'Yap3 (UniProt P38749)', 1),
  ('GCGCGCGC', 'Yap3 (UniProt P38749)', 1),
  ('TCCTCTCA', 'Yap3 (UniProt P38749)', -1),
  ('AGTGCATA', 'Yap3 (UniProt P38749)', -1),
  ('AGTCATGG', 'Yap3 (UniProt P38749)', 1),
  ('CAGAGTTA', 'Yap3 (UniProt P38749)', -1),
  ('CAATATTA', 'Yap3 (UniProt P38749)', 1),
  ('ATGACGTA', 'Yap3 (UniProt P38749)', 1),
  ('GAGGGGCC', 'Yap3 (UniProt P38749)', -1),
  ('CGTAATTC', 'Yap3 (UniProt P38749)', 1),
  ('ACGCGCTA', 'Yap3 (UniProt P38749)', -1),
  ('TACAGCTA', 'Yap3 (UniProt P38749)', -1),
  ('AGTGATCC', 'Yap3 (UniProt P38749)', -1),
  ('CCTAATTC', 'Yap3 (UniProt P38749)', -1),
  ('AACGGATT', 'Yap3 (UniProt P38749)', 1),
  ('AAATATTC', 'Yap3 (UniProt P38749)', 1),
  ('GATAATCA', 'Yap3 (UniProt P38749)', 1),
  ('ATTTCTAG', 'Yap3 (UniProt P38749)', 1),
  ('TAATATCA', 'Yap3 (UniProt P38749)', 1),
  ('ACATGTAA', 'Yap3 (UniProt P38749)', 1),
  ('GGACTGTA', 'Yap3 (UniProt P38749)', -1),
  ('ATGACGTG', 'Yap3 (UniProt P38749)', 1),
  ('AGGATTGA', 'Yap3 (UniProt P38749)', 1),
  ('ACCCCCAT', 'Yap3 (UniProt P38749)', -1),
  ('ATCTGGAG', 'Yap3 (UniProt P38749)', -1),
  ('GAATATTC', 'Yap3 (UniProt P38749)', 1);
